protein stability index overview
B1: HSP90AB1 (parent)
chain: QVANSAFVERVRKRGFEVVYMTEP

Variants of: B1
ASSAY_EXPLANATION: protein stability index of a GFP-peptide fusion (GPS, HEK-293T) (PSI 1-6); higher = more stable;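 also: lentivirally expressed fusions sorted by FACS into six bins by GFP to DsRed ratio, PSI derived from sequencing read proportions per bin multiplied by bin number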
STATED_CONDITIONS: c terminus: a fixed tail appended

[
  {
    "CHAIN_SEQUENCE": "QVANSAFVERVRKRGFEVVYQTEP",
    "protein stability index": 3.1
  },
  {
    "CHAIN_SEQUENCE": "QVANSAFVERVRKRGFEVVYRTEP",
    "protein stability index": 3.33
  },
  {
    "CHAIN_SEQUENCE": "QVANSAFVPRVRKRGFEVVYMTEP",
    "protein stability index": 2.56
  },
  {
    "CHAIN_SEQUENCE": "QVANSAFVERVRKRGFEVVYMTQP",
    "protein stability index": 1.9
  },
  {
    "CHAIN_SEQUENCE": "QRANSAFVERVRKRGFEVVYMTEP",
    "protein stability index": 2.6
  },
  {
    "CHAIN_SEQUENCE": "HVANSAFVERVRKRGFEVVYMTEP",
    "protein stability index": 1.85
  },
  {
    "CHAIN_SEQUENCE": "QVANSAFVERVRKRGFEVVYGTEP",
    "protein stability index": 2.65
  },
  {
    "CHAIN_SEQUENCE": "QVANSAFVELVRKRGFEVVYMTEP",
    "protein stability index": 1.81
  },
  {
    "CHAIN_SEQUENCE": "QVANSAFVERVRKRDFEVVYMTEP",
    "protein stability index": 3.3
  },
  {
    "CHAIN_SEQUENCE": "QVAWSAFVERVRKRGFEVVYMTEP",
    "protein stability index": 1.94
  },
  {
    "CHAIN_SEQUENCE": "QVANSAFVERVRKRKFEVVYMTEP",
    "protein stability index": 2.12
  }
]
